// reported Activity for each item listed
Tested on: Rattus norvegicus
assay.method.text: Anticonvulsant activity in rat assessed as protection against maximal electric shock-induced seizures at 40 mg/kg, ip
Format: functional
study.conditions: route intraperitoneal
Just the number plus its unit, please.

O=C1C(Cl)C(c2ccc(O)cc2)N1c1nnc(Cn2c3ccccc3c3ccccc32)s1 (stereo not given); 60%
O=C1CSC(c2ccc(O)cc2)N1c1nnc(Cn2c3ccccc3c3ccccc32)s1 (stereo not given); 60%
Brc1ccccc1/C=N/c1nnc(Cn2c3ccccc3c3ccccc32)s1; 60%
O=C1C(Cl)C(c2ccccc2Br)N1c1nnc(Cn2c3ccccc3c3ccccc32)s1 (stereo not given); 80%
O=C1C(Cl)C(c2ccc(O)cc2)N1c1nnc(Cn2c3ccccc3c3ccccc32)o1 (stereo not given); 40%

GET /values?item= O=C1C(Cl)C(c2ccccc2Br)N1c1nnc(Cn2c3ccccc3c3ccccc32)o1 (stereo not given) &system= Rattus norvegicus returns Activity: 60%

GET /values?item= COc1cc(C2C(Cl)C(=O)N2c2nnc(Cn3c4ccccc4c4ccccc43)s2)ccc1O (stereo not given) &system= Rattus norvegicus returns Activity: 70%

GET /values?item= Oc1ccc(/C=N/c2nnc(Cn3c4ccccc4c4ccccc43)o2)c(O)c1 &system= Rattus norvegicus returns Activity: 30%

GET /values?item= COc1cc(/C=N/c2nnc(Cn3c4ccccc4c4ccccc43)s2)ccc1O &system= Rattus norvegicus returns Activity: 50%

GET /values?item= O=C1CSC(c2ccc(O)cc2O)N1c1nnc(Cn2c3ccccc3c3ccccc32)o1 (stereo not given) &system= Rattus norvegicus returns Activity: 60%

GET /values?item= Oc1ccc(/C=N/c2nnc(Cn3c4ccccc4c4ccccc43)s2)c(O)c1 &system= Rattus norvegicus returns Activity: 50%

GET /values?item= CN(C)c1ccc(/C=N/c2nnc(Cn3c4ccccc4c4ccccc43)s2)cc1 &system= Rattus norvegicus returns Activity: 40%

GET /values?item= COc1cc(/C=N/c2nnc(Cn3c4ccccc4c4ccccc43)o2)ccc1O &system= Rattus norvegicus returns Activity: 30%

GET /values?item= CN(C)c1ccc(C2SCC(=O)N2c2nnc(Cn3c4ccccc4c4ccccc43)s2)cc1 (stereo not given) &system= Rattus norvegicus returns Activity: 60%

GET /values?item= Brc1ccccc1/C=N/c1nnc(Cn2c3ccccc3c3ccccc32)o1 &system= Rattus norvegicus returns Activity: 30%
